Sourced from patent US20210130452A1

- System: T1, rat IL-17F (rat, UniProt Q5BJ95 29-161)
- T1 sequence (looked up): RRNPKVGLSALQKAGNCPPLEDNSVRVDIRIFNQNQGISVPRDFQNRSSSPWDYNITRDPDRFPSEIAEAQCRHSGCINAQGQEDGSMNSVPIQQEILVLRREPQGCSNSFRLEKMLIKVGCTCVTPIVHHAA
- Protocol Notes: ELISA, coated IL-17F;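 further: binding ELISA on coated antigen from various species, with bound Nanobodies revealed by an HRP-linked anti-myc antibody and esTMB substrate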
OD of 0.0005 OD or higher: Criterion met. Under 0.0005 OD: Criterion not met.

| Binder | Discrete Label |
| --- | --- |
| 13E05 (VHH, Class 4) VHH: EVQLVESGGGKVQAGDSLTLSCVASGGTFSNYAAWFRQAPGKDRRELVVSIFRTGSITYTADSVKGRFTASRVNTKNTVYLQMNSLKPEDTAVYYCASAYNPGVGYDYWGQGTQVTVSS | Criterion met |
| 07B11 (VHH, Class 3) VHH: EVQLVESGGGLVQAGGSLRLSCVASGRAFSSYVMGWFRQAPGMEREFVALIRWSDGITGYVDSVKGRFTISRDNAKNTVYLQMNSLKPEDTAVYYCAAAVRPGDYDYWGQGTQVTVSS | Criterion not met |
| 24B08 (VHH, Class 3) VHH: EVQLVESGGGLVQAGGSLRLSCAVSGGTFSTYKMGWFRQAPGKEREIVARISTNGPTAYAEFVKGRFTVSRENTKNTVYLQMNSLNIEDTAVYYCAAGYDSLFAGYDYWGQGTQVTVSS | Criterion met |
| 09G10 (VHH, Class 2) VHH: EVQLVESGGGLVQAGGSLRLSCAASDSVFTAKAVGWYRQPPGLQREWVAIITSGGKTNYADSSVKGRFTVSVDKVKNTVTLQMNSLKPEDTAVYYCYAQWMGRDYWGQGTQVTVSS | Criterion met |
| 02A08 (VHH, Class 2) VHH: EVQLVESGGGVVQPGGSLRLSCADSERSFSFNAMGWFRQAPGKEREFVAAISATGDDTYYADSVKGRFAISRDTARNTVYLQMNSLKPEDTAVYYCGARVNFDGTVSYTNDYAYWGQGTQVTVSS | Criterion met |
| 13B03 (VHH, Class 4; also called IL17MS13B03) VHH: EVQLVESGGGSVQAGDSLRLSCAASGRANSINWFGWFRQTPGKEREFVAGIRWSDAYTEYANSVKGRFTISRDNAKNTVDLQMDSLKPEDTAVYYCVLDLSTVRYWGQGTQVTVSS | Criterion met |
